- study-system: DNA repair protein RAD52 homolog (Homo sapiens)
- Sequence (P43351 whole entry): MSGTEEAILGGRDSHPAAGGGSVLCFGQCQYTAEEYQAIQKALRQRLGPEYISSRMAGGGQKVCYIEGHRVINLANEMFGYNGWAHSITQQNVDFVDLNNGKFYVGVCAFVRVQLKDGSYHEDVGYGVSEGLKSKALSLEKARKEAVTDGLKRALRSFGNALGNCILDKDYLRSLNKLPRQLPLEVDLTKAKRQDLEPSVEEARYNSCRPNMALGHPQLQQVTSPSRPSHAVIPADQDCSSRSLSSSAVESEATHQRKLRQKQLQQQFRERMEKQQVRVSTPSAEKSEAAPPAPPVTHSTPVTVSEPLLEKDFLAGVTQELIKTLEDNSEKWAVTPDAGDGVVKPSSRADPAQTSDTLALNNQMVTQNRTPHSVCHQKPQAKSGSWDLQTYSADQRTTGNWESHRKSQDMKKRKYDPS
- Type: functional, biochemical
Calls of active or inactive are those of the source.

{"input-smiles": "COc1ccc(/C=C2\\Sc3ccc(C(=O)NCCCN4CCCC4)cc3N(C)C2=O)cc1OC", "study-system": "DNA repair protein RAD52 homolog (Homo sapiens)", "AC50": "3.69 µM (active)"}
{"input-smiles": "COc1cc2c(cc1O)CC[n+]1cc3c(OC)c(OC)ccc3cc1-2", "study-system": "DNA repair protein RAD52 homolog (Homo sapiens)", "AC50": "15.2 µM (active)"}
{"input-smiles": "Cn1c2ccccc2c(=O)c2cc(NCCCN3CCOCC3)ccc21", "study-system": "DNA repair protein RAD52 homolog (Homo sapiens)", "AC50": "7.92 µM (active)"}
{"input-smiles": "CCCCCCCCCCCCCCCC[N+](C)(C)C", "study-system": "DNA repair protein RAD52 homolog (Homo sapiens)", "AC50": "8.73 µM (active)"}
{"input-smiles": "CCN(CC)CCNc1nc(SC)nc2sc3c(c12)CCN(C)C3", "study-system": "DNA repair protein RAD52 homolog (Homo sapiens)", "AC50": "5.18 µM (active)"}

###

- assay-comment: HEp-2 cell cytotoxicity, dose response, cytotoxicity control for RSV inhibitor project, HTS (AID 2410)
- Format: functional
- test-context: human respiratory syncytial virus
The source made the active and inactive calls.
Form field: CC50 (one value per entry).
experimental-readout: CC50

{"input-smiles": "FC(F)(F)c1cccc(-c2ccn3ncnc3n2)c1", "result": "35.5 µM (active)"}
{"input-smiles": "Cc1cc(/C=N/NC(=O)c2c(Br)cnn2C)c(C)n1-c1cccc(Br)c1", "result": "41.5 µM (active)"}
{"input-smiles": "Cc1cccc(N2CCN(C(=O)CCCn3c(=S)[nH]c4cc5c(cc4c3=O)OCO5)CC2)c1C", "result": "23.4 µM (active)"}
{"input-smiles": "NS(=O)(=O)c1ccc(N/N=C/c2cn(-c3ccccc3)nc2-c2cccs2)cc1", "result": "12.2 µM (active)"}

###

Form field: AC50 (one value per entry).
- study-system: Cytochrome P450 1A2 (Homo sapiens);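 also: PubChem cytochrome P450 panel assay, CYP1A2 panel member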
- Sequence (P05177 whole entry): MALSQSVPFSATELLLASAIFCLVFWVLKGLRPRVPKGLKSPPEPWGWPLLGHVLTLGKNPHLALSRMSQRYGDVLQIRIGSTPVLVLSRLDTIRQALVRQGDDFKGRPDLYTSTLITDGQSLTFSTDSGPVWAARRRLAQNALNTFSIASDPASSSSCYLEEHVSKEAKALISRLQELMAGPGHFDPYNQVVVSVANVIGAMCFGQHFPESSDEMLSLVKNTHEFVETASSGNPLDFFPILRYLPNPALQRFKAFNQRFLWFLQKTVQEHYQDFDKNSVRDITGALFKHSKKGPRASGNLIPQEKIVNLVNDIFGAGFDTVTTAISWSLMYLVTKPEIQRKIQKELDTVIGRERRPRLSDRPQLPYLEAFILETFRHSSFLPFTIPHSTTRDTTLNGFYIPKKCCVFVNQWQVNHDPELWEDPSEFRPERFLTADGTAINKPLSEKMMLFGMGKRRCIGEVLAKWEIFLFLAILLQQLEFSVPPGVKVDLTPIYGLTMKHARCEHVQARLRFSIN

{"input-smiles": "O=C(c1ccc(F)cc1)C1CCN(C(S)=Nc2ccccc2)CC1", "AC50": "12.6 µM (inconclusive)"}
{"input-smiles": "COc1ccc(-n2nnnc2/C=C\\Nc2ccccc2C(=O)c2ccccc2)cc1", "AC50": "22.4 µM (inconclusive)"}
{"input-smiles": "Cc1cccc(C(=O)O)c1C[C@H]1NCC[C@H]2c3ccccc3N[C@@H]12", "AC50": "0.0631 µM (inconclusive)"}
{"input-smiles": "N[C@@H](CCCP(=O)(O)O)C(=O)O", "AC50": "31.6 µM (inconclusive)"}
{"input-smiles": "CN(C)c1cc(=O)n2c(n1)SCCC2", "AC50": "12.6 µM (inconclusive)"}

###

- study-system: UniProt:P33261
- Sequence (P33261 whole entry): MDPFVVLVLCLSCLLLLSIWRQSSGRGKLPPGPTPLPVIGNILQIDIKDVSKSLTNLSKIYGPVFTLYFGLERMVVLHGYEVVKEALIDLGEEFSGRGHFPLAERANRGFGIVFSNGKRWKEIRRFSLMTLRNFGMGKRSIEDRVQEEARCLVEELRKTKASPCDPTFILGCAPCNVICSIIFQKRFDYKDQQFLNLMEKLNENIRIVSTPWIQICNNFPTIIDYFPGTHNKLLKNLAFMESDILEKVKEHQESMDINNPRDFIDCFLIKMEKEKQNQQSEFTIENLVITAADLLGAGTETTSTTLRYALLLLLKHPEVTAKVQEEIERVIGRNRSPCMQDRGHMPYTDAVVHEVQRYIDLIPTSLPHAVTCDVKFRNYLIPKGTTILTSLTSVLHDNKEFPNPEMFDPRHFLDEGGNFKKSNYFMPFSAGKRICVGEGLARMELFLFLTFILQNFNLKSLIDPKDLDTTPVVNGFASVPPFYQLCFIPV
- assay-comment: Cytochrome panel assay with activity outcomes. Panel member name: p450-cyp2c19 Compounds with AC50 equal or less than 10 uM are considered active
- Format: functional
- test-context: read-out: AC50
Form field: AC50 (one value per entry).

{"compound": "Cc1ccc(S(=O)(=O)NCc2cccc([N+](=O)[O-])c2)cc1", "study-system": "UniProt:P33261", "AC50": "2.51 µM (inconclusive)"}
{"compound": "O=C(NCCCN1CCC(Cc2ccccc2)CC1)C1CCN(S(=O)(=O)N2CCOCC2)CC1", "study-system": "UniProt:P33261", "AC50": "25.1 µM (inconclusive)"}
{"compound": "CCCC(=O)N1CCN(c2ccc(NC(=O)c3ccc(OCC)c([N+](=O)[O-])c3)cc2)CC1", "study-system": "UniProt:P33261", "AC50": "28.2 µM (inconclusive)"}
{"compound": "C#C[C@]1(O)CC[C@@H]2[C@H]3CCc4cc(OC)ccc4[C@@H]3CC[C@@]21C", "study-system": "UniProt:P33261", "AC50": "1.26 µM (inconclusive)"}
{"compound": "c1ccc(C2CCC(N3CCC(N4CCCCC4)CC3)CC2)cc1 (configuration not stated)", "study-system": "UniProt:P33261", "AC50": "31.6 µM (inconclusive)"}
{"compound": "Cc1cc(C)n2nc(SCC(=O)N/N=C/c3ccccc3F)nc2n1", "study-system": "UniProt:P33261", "AC50": "20 µM (inconclusive)"}
{"compound": "CCCc1cc2c(n1Cc1cc(F)cc(F)c1)C(C)C1CN(C(=O)c3ccccc3)C(C)(C(=O)OC)C21 (configuration not stated)", "study-system": "UniProt:P33261", "AC50": "39.8 µM (inconclusive)"}
{"compound": "COCCNC(=O)c1ccc2c(c1)ncn2-c1ccc(F)c(F)c1", "study-system": "UniProt:P33261", "AC50": "28.2 µM (inconclusive)"}
{"compound": "Nc1cccc2cnccc12", "study-system": "UniProt:P33261", "AC50": "20 µM (inconclusive)"}
{"compound": "CC[C@H]1C2=C3C(CC[C@H]4C(OCc5ccc(F)cc5C(F)(F)F)OC[C@](C)([C@@H]34)N(C(=O)OC(C)(C)C)C2)C2COC(=O)OCC21 (some centres not stated)", "study-system": "UniProt:P33261", "AC50": "39.8 µM (inconclusive)"}
{"compound": "CCOC(=O)C1C(=O)NC(C)C1c1ccccc1 (configuration not stated)", "study-system": "UniProt:P33261", "AC50": "31.6 µM (inconclusive)"}
{"compound": "O=C(O/N=C\\c1ccc(N2CCCCC2)c([N+](=O)[O-])c1)c1c(F)cccc1F", "study-system": "UniProt:P33261", "AC50": "11.2 µM (inconclusive)"}
{"compound": "CNc1ncc(C(=O)c2ccccc2)s1", "study-system": "UniProt:P33261", "AC50": "2.24 µM (inconclusive)"}
{"compound": "COC(=O)[C@@]1(Cc2ccc(F)cc2)[C@H]2c3cc(C(=O)N(C)C)n(C)c3C[C@H]2CN1C(=O)c1ccccc1", "study-system": "UniProt:P33261", "AC50": "25.1 µM (inconclusive)"}
{"compound": "CN(C)c1cc(=O)n2c(n1)SCCC2", "study-system": "UniProt:P33261", "AC50": "28.2 µM (inconclusive)"}
{"compound": "COc1ncc2nc(CCc3ccccc3)c(=O)n(C)c2n1", "study-system": "UniProt:P33261", "AC50": "25.1 µM (inconclusive)"}
{"compound": "O=C(c1ccc(F)cc1)C1CCN(C(S)=Nc2ccccc2)CC1", "study-system": "UniProt:P33261", "AC50": "7.08 µM (inconclusive)"}
{"compound": "COC(=O)NCC(c1cccnc1)N1CCN(c2ccccc2OC)CC1 (configuration not stated)", "study-system": "UniProt:P33261", "AC50": "11.2 µM (inconclusive)"}
{"compound": "Cc1cc(C)n(-c2ccc(C(=O)Nc3cc(C(F)(F)F)ccc3N3CCOCC3)cc2)n1", "study-system": "UniProt:P33261", "AC50": "10 µM (inconclusive)"}
{"compound": "COC(=O)N1CCC2(CCN(C(=O)Nc3cccc(F)c3)CC2)CC1", "study-system": "UniProt:P33261", "AC50": "5.01 µM (inconclusive)"}
{"compound": "CCCN(CCC)CCCNS(=O)(=O)c1cc(Br)cc2c1N(C(C)=O)CC2", "study-system": "UniProt:P33261", "AC50": "31.6 µM (inconclusive)"}
{"compound": "NCCc1c[nH]c2ccc(OC(=O)C(=O)O)cc12", "study-system": "UniProt:P33261", "AC50": "1.58 µM (inconclusive)"}

###

- study-system: 26S proteasome non-ATPase regulatory subunit 14 (Homo sapiens, UniProt O00487)
- Sequence (O00487 whole entry): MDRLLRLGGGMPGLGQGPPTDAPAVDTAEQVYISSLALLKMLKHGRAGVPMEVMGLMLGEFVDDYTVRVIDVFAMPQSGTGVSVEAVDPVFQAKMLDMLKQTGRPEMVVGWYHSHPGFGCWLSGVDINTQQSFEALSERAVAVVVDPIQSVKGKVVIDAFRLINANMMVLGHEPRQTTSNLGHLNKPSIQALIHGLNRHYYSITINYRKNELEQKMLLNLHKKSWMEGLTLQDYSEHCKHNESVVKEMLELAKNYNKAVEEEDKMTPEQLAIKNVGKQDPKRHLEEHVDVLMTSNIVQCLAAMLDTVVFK
- assay-comment: inhibition of proteasome subunit RPN11 – biochemical, fluorescence polarization, uHTS hits, confirmation (AID 602368)
- Format: functional
Calls of active or inactive are those of the source.
experimental-readout: IC50

{"input-smiles": "CCOc1ccc(NC(=O)c2ccc(NC(=O)COC(=O)c3ccc(NC(=O)CC#N)cc3)cc2)cc1", "experimental-readout": "IC50", "result": "15.9 µM (active)"}
{"input-smiles": "O=C(O)CCCCCN1C(=O)/C(=C/c2cn(-c3ccccc3)nc2-c2cccs2)SC1=S", "experimental-readout": "IC50", "result": "7.92 µM (active)"}
{"input-smiles": "Cn1c(=O)oc2cc(S(=O)(=O)N3CCN(c4ccccc4F)CC3)ccc21", "experimental-readout": "IC50", "result": "20.7 µM (active)"}
{"input-smiles": "CC(C)(C)c1nc2ccccc2c2nnc(SCC(=O)Nc3nc4ccccc4s3)n12", "experimental-readout": "IC50", "result": "3.79 µM (active)"}
{"input-smiles": "COc1ccc(NC(=O)c2cccc3c(-c4cccnc4)coc23)cc1", "experimental-readout": "IC50", "result": "15.2 µM (active)"}
{"input-smiles": "CCN(CC)c1ccc(N)cc1", "experimental-readout": "IC50", "result": "4.69 µM (active)"}
